Data provenance: ChEMBL document CHEMBL3433997

biological target: Solute carrier family 2, facilitated glucose transporter member 1 (Homo sapiens) (UniProt P11166); test: ST_JUDE_LEISH: Cytotoxicity at 2uM final concentration against transgenic Leishmania Mexicana promastigotes LmGLUT1 that are glucose transport deficient and complemented with the human glucose transporter GLUT1. Activity is measured by DNA content using SYBR green in vitro; assay type: functional
Sequence (P11166 whole entry): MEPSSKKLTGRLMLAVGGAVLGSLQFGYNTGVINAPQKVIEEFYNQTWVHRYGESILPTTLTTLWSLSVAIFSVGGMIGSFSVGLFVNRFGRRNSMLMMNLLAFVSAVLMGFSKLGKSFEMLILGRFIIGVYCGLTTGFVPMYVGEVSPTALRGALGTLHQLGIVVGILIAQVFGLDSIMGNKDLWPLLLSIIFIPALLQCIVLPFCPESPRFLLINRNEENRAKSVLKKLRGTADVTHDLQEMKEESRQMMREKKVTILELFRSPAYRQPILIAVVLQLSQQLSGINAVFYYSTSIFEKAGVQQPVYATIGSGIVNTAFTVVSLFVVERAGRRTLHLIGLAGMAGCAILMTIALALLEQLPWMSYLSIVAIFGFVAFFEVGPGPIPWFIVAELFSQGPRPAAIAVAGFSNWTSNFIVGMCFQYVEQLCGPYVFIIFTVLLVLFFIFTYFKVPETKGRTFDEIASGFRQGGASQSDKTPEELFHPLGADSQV
Measured inhibition accompanies every entry in the list below.

compound	inhibition / %
Cc1ccccc1-c1cc(=O)c2cc(NC(=O)c3cccs3)ccc2o1	3.19
CCc1c(CCNCCCCCCNC(C)Cc2ccc3c(c2CC)OCO3)ccc(OC)c1OC (stereo not given)	4.49
Oc1ccc(CN2Cc3ccccc3OC3(CCN(Cc4c[nH]c5cnccc45)CC3)C2)cc1	-0.29
O=C(Nc1cccc(C(F)(F)F)c1)c1ccc(S(=O)(=O)NCC2CCCN(CC3CCCCC3)C2)cc1 (stereo not given)	1.23
CN1CCN(c2nsc3ccc(-c4ccc(OCCN5CCCC5)cc4)cc23)CC1	13.2
O=S1(=O)NCc2ccc(Nc3nccc(Nc4ccc5c(cnn5Cc5ccccc5)c4)n3)cc21	-0.8
Cn1cnc(CCNC(=O)c2ccc(-c3cccc(-c4nc5cc(C(F)(F)F)ccc5[nH]4)c3)cc2)c1	4.83
O=C(CSc1nc2ccccc2c(=O)n1CC1CCCO1)Nc1cc(C(F)(F)F)ccc1Cl (stereo not given)	9.97
CCc1c(C)nc(-n2nc(C)cc2NC(=O)c2cccc3ccccc23)[nH]c1=O	-3.49
CC(C)Nc1cc(C(=O)N[C@@H](Cc2ccccc2)[C@H](O)CNCc2cccc(C(F)(F)F)c2)c(F)c(N2CCCCS2(=O)=O)c1	7.12

* * *

molecular target: Solute carrier family 2, facilitated glucose transporter member 1 (Homo sapiens); assay: ST_JUDE_LEISH: Cytotoxicity at 2uM final concentration against transgenic Leishmania Mexicana promastigotes LmGLUT1 that are glucose transport deficient and complemented with the human glucose transporter GLUT1. Activity is measured by DNA content using SYBR green in vitro; type: functional

molecule	assayed.system	unit.spec	inhibition
CN1CCCCC1CCc1cc(C(=O)Nc2ccc(-c3ccc(O)cc3)cc2)ccc1O (configuration not stated)	Solute carrier family 2, facilitated glucose transporter member 1 (Homo sapiens)	%	1.7
CCN(CC)CCN(Cc1ccc(-c2ccc(C(F)(F)F)cc2)cc1)C(=O)Cn1c(CCc2cccc(F)c2F)nc(=O)c2cc(C)ccc21	Solute carrier family 2, facilitated glucose transporter member 1 (Homo sapiens)	%	5.28
COc1ccc(C2C(C(=O)Nc3ccc(C)cc3Br)c3ccccc3C(=O)N2C)cc1 (configuration not stated)	Solute carrier family 2, facilitated glucose transporter member 1 (Homo sapiens)	%	3.32
Cc1ccc(F)c(OCC2CCN(c3ncc(C(=O)NC4CC4)cc3Cl)CC2)c1	Solute carrier family 2, facilitated glucose transporter member 1 (Homo sapiens)	%	-1.14
Cc1ccc(CN2CCCN(Cc3cccc(C(=O)Nc4ccc(C(C)(C)C)cc4)c3)CC2)s1	Solute carrier family 2, facilitated glucose transporter member 1 (Homo sapiens)	%	7.92
CC(C(=O)NC1CCN(c2ccnc(Nc3ccc(F)cc3)n2)C1)c1ccc(Cl)cc1 (configuration not stated)	Solute carrier family 2, facilitated glucose transporter member 1 (Homo sapiens)	%	1.1
CC(O)c1cccc(-c2ccc(Nc3ccnc4cc(-c5nccs5)ccc34)cc2)c1 (configuration not stated)	Solute carrier family 2, facilitated glucose transporter member 1 (Homo sapiens)	%	4.55
O=C1COC2(CN1C1CCN(Cc3ccc(O)cc3Cl)C1)c1ccccc1-c1ccccc12 (configuration not stated)	Solute carrier family 2, facilitated glucose transporter member 1 (Homo sapiens)	%	2.42
Cc1ccc(NC(=O)N2CCCN(CCCCCNC(=O)/C=C/c3ccc(Cl)c(Cl)c3)CC2)cc1	Solute carrier family 2, facilitated glucose transporter member 1 (Homo sapiens)	%	-1.97
CC(=O)N1N=C(c2ccccc2)Sc2c1nc(-c1ccc(Cl)cc1)n2C(C)=O	Solute carrier family 2, facilitated glucose transporter member 1 (Homo sapiens)	%	1.37
O=C(CSc1nn(-c2ccccc2)c(=S)s1)c1c[nH]c2ccccc12	Solute carrier family 2, facilitated glucose transporter member 1 (Homo sapiens)	%	2.16
COc1cc2nc(N3CCC(CNC(=O)c4ccc(-c5cccc(C#N)c5)cc4)CC3)nc(N)c2cc1OC	Solute carrier family 2, facilitated glucose transporter member 1 (Homo sapiens)	%	3.6
CCN(CC)CCn1c2ccccc2c2ccc(C(=O)Nc3ccc4sc(C)nc4c3)cc21	Solute carrier family 2, facilitated glucose transporter member 1 (Homo sapiens)	%	13.2
Cc1cccc2nc(-c3cccc(-c4ccc(CNCCc5ccncc5)cc4)c3)[nH]c12	Solute carrier family 2, facilitated glucose transporter member 1 (Homo sapiens)	%	0.46
Cc1cc(N2CCN(CC3CCN(C)CC3)CC2)nc(Nc2ccc(Br)cc2)n1	Solute carrier family 2, facilitated glucose transporter member 1 (Homo sapiens)	%	1.44
CS(=O)(=O)Cc1ccc(Nc2nccc(N3CCCc4cc(NC(=O)Nc5cccc(C(F)(F)F)c5)ccc43)n2)cc1	Solute carrier family 2, facilitated glucose transporter member 1 (Homo sapiens)	%	9.54
CC(C)(C)c1ccc2[nH]c(-c3ccc(/C=C/C(=O)NCc4cccc(C(F)(F)F)c4)cc3)nc2c1	Solute carrier family 2, facilitated glucose transporter member 1 (Homo sapiens)	%	3.32
O=C(NCCCCCN1CCC(c2ccc(O)cc2)CC1)c1ccc(-c2ccccc2)cc1	Solute carrier family 2, facilitated glucose transporter member 1 (Homo sapiens)	%	5.44
N#Cc1c(N2CCCCCC2)nc(N)c2c(N)nc3c(c12)CC(=O)N3c1ccc(F)cc1	Solute carrier family 2, facilitated glucose transporter member 1 (Homo sapiens)	%	2.61
Cc1ccc(Cc2c[nH]c(NCCSCc3ccc(CN(C)C)s3)nc2=O)cn1	Solute carrier family 2, facilitated glucose transporter member 1 (Homo sapiens)	%	1.24
CC(C)c1ccc(N2CCN(CCCCNC(=O)c3ccc(NC(=O)c4cc(Cl)cc(Cl)c4)cc3)CC2)cc1	Solute carrier family 2, facilitated glucose transporter member 1 (Homo sapiens)	%	-0.22
CCOCc1cn(CC(=O)c2ccc(-c3ccccc3)cc2)c(C)nc1=N	Solute carrier family 2, facilitated glucose transporter member 1 (Homo sapiens)	%	-1.07
CCN(CC)CCNC(=O)c1ccc(NC(=O)c2cc3c(C)nn(-c4ccc(Cl)cc4)c3s2)cc1	Solute carrier family 2, facilitated glucose transporter member 1 (Homo sapiens)	%	2.43
COc1ccc2nccc(NCC3(O)CCN(CCc4ccc5c(c4)OCCO5)CC3)c2n1	Solute carrier family 2, facilitated glucose transporter member 1 (Homo sapiens)	%	4.99
CN1CC[C@@H](Oc2cc(Nc3nc(-c4ccc(C#N)cc4)cs3)ccc2Cl)C1	Solute carrier family 2, facilitated glucose transporter member 1 (Homo sapiens)	%	5.3
COCCNCc1cccc(-c2ccc3c(Nc4cc(O)c(Cl)cc4F)ccnc3c2)c1	Solute carrier family 2, facilitated glucose transporter member 1 (Homo sapiens)	%	2.97
Cc1cc(N2CCC(NS(=O)(=O)c3ccccc3)CC2)nc(Nc2cccc(C#N)c2)n1	Solute carrier family 2, facilitated glucose transporter member 1 (Homo sapiens)	%	44.5
